Tested on: IGROV-1
Assay: Inhibition of cells growth by colorimetric assay (SRB)
Conditions: Homo sapiens, IGROV-1, 48 h, read-out: LC50 IGROV
Please use t for CC50 under 1000 nM and f for everything else, ties included.

Compound | Class Label
C=CCOc1c(C)c2c(c3c1CC1[C@H]4c5c(cc(C)c(OC)c5O)C[C@@H]([C@H](C#N)N1[C@H]3CN)N4C)OCO2 (stereo partly shown) | f
COC1=C(C)C(=O)C2=C(C1=O)[C@@H]1C3[C@@H]4SC[C@]5(NCCc6c5[nH]c5ccccc65)C(=O)OC[C@@H](c5c6c(c(C)c(OC(C)=O)c54)OCO6)N3[C@@H](C#N)[C@H](C2)N1C (stereo partly shown) | f
CCCCCCCCCCCCCCCC(=O)NC1CS[C@@H]2c3c(OC(C)=O)c(C)c4c(c3[C@H](COC1=O)N1C2[C@@H]2N[C@@H](Cc3cc(C)c(OC)c(O)c32)[C@@H]1C#N)OCO4 (stereo partly shown) | f
C=CCOc1c(C)c2c(c3c1CC1[C@H]4c5c(cc(C)c(OC)c5O)C[C@@H]([C@H](C#N)N1[C@H]3CO)N4C)OCO2 (stereo partly shown) | f
C=CCN1[C@@H]2c3c(cc(C)c(OC)c3O)C[C@H]1[C@H](C#N)N1C2[C@@H]2SCC(N)C(=O)OC[C@H]1c1c3c(c(C)c(OC(C)=O)c12)OCO3 (stereo partly shown) | f
COc1c(C)cc2c(c1O)[C@H]1N[C@@H](C2)[C@H](C#N)N2C1[C@@H]1SCC(NC(=O)C(F)(F)F)C(=O)OC[C@H]2c2c3c(c(C)c(OC(C)=O)c21)OCO3 (stereo partly shown) | t
COc1c(C)cc2c(c1O)[C@H]1N[C@@H](C2)[C@H](C#N)N2C1[C@@H]1SCC(NC(C)=O)C(=O)OC[C@H]2c2c3c(c(C)c(OC(C)=O)c21)OCO3 (stereo partly shown) | t

###

Tested on: IGROV-1
Test: Inhibition of cells growth by colorimetric assay (SRB)
Conditions: read-out: IGROV LC50; SRB assay, 48 hours exposure, IGROV, cell killing
Assay Endpoint: CC50 (µM)

Molecule | Measurement Unit | Measured Result
COc1c(C)cc2c(c1O)C1C3C4SCC(NC(C)=O)C(=O)OCC(c5c6c(c(C)c(OC(C)=O)c54)OCO6)N3C(C#N)C(C2)N1C(C)=O (stereo not shown) [compound 35] | µM | 8.63

###

Property: GI50; scope: individual compounds
System: HT-29
Assay: cells
Conditions: read-out: GI50 HT29; HT29; SRB, 48 hours exposure

Compound | GI50
COc1c(C)cc2c(c1O)C1C3C4SCC(NC(C)=O)C(=O)OCC(c5c6c(c(C)c(OC(C)=O)c54)OCO6)N3C(C#N)C(C2)N1C(C)=O (stereo not shown) | 602 nM
C=CCN1C2Cc3cc(C)c(OC)c(O)c3C1C1C3SCC(NC(C)=O)C(=O)OCC(c4c5c(c(C)c(OC(C)=O)c43)OCO5)N1C2C#N (stereo not shown) | 5.17 nM
C=CCN1C2Cc3cc(C)c(OC)c(O)c3C1C1C3SCC(NC(=O)CC)C(=O)OCC(c4c5c(c(C)c(OC(C)=O)c43)OCO5)N1C2C#N (stereo not shown) | 75.6 nM
COCCOCOc1c(OC)c(C)cc2c1[C@H]1N[C@@H](C2)[C@H](C#N)N2C1CC1(O)C(=O)C(C)=C3OCOC3=C1[C@@H]2CO[Si](c1ccccc1)(c1ccccc1)C(C)(C)C (stereo partly shown) | 918 nM
